# ASSAYED TARGET: T1, IHF from Staphylococcus aureus (Staphylococcus aureus, UniProt Q5HFV0 1-90)
# T1 construct: also called IHF (Sa); HU; not shown: poly-histidine tag
# T1 sequence: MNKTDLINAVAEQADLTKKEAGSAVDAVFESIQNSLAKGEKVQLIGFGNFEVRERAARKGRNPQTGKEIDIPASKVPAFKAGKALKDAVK
# PROCEDURE SUMMARY: ELISA
Answer each item with its documented OD.
One number for each entry, in OD.

The following binders have reported results that may help.
{"BINDER": "TRL1215 (antibody, V domains shown) VH: QVQLVESGTEVKNPGASVKVSCTASGYKFDEYGVSWVRQSPGQGLEWMGWISVYNGKTNYSQNFQGRLTLTTETSTDTAYMELTSLRPDDTAVYYCATDKNWFDPWGPGTLVTVSS VL: DIVMTQSPSASGSPGQSITISCTGTNTDYNYVSWYQHHPGKAPKVIIYDVKKRPSGVPSRFSGSRSGNTATLTVSGLQTEDEADYYCVSYADNNHYVFGSGTKVTVL", "REPORTED ENDPOINT": "OD", "NUMBER": 1.4}
{"BINDER": "TRL1216 (antibody, V domains shown) VH: QVQLVESGGGVVQPGGSLRVSCAASAFSFRDYGIHWVRQAPGKGLQWVAVISHDGGKKFYADSVRGRFTISRDNSENTLYLQMNSLRSDDTAVYYCARLVASCSGSTCTTQPAAFDIWGPGTLVTVSS VL: DIMLTQPPSVSVSPGQTARITCSGDALPKKYTYWYQQKSGQAPVLLIYEDRKRPSEIPERFSAFTSWTTATLTITGAQVRDEADYYCYSTDISGDIGVFGGGTKLTVL", "REPORTED ENDPOINT": "OD", "NUMBER": 0.5}

Attention now shifts to the item below.
Any idea what OD was measured for TRL1087 (antibody, V domains shown) VH: QVQLLESGPGLVRPSDTLSLTCTFSADLSTNAYWTWIRQPPGKGLEWIGYMSHSGGRDYNPSFNRRVTISVDTSKNQVFLRLTSVTSADTAVYFCVREVGSYYDYWGQGILVTVSS VL: DIEMTQSPSSLSASVGDRITITCRASQGISTWLAWYQQKPGKAPKSLIFSTSSLHSGVPSKFSGSGSGTDFTLTITNLQPEDFATYYCQQKWETPYSFGQGTKLDMIR ?
0.14
